Attribution: patent US20120004228A1

Target: Recombinant human LTC4 synthase (Homo sapiens, UniProt Q16873)
Sequence (Q16873 1-150): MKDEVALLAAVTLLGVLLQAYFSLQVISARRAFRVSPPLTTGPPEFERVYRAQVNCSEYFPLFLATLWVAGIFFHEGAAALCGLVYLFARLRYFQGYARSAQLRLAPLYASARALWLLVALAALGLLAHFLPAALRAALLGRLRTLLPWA
Assay: In vitro LTC4 synthase assay (LTA4 to LTC4, HTRF detection)
Field: class. Source value: IC50. Ranges: group A: < 0.1 µM; group B: ≥ 0.1 µM and < 0.4 µM; group C: ≥ 0.4 µM

Please classify: `CN(c1ccc(Cl)cc1)c1ccc(C(=O)c2cc(NC(=O)c3cccc(C(F)(F)F)c3)cc(C(=O)O)c2)nc1`
group C

Please classify: `CN(c1ccc(Cl)cc1)c1ccc(C(=O)c2cc(C(=O)O)cc(N(CC3OCCO3)c3ccccc3)c2)cc1`
group A

Please classify: `CN(c1ccc(Cl)cc1)c1ccc(C(=O)c2cc(Oc3cccc(F)c3)cc(C(=O)O)c2)cc1`
group A

Please classify: `CN(c1ccc(Cl)cc1)c1ccc(C(=O)c2cc(C(=O)O)cc(N(CC3(C)COC3)c3ccccc3F)c2)cc1`
group A

Please classify: CN(c1ccc(Cl)cc1)c1ccc(C(=O)c2cc(C(=O)O)cc(N(CC3CCCO3)c3ccccc3)c2)nc1 (stereo not shown)
group B

Please classify: `Cc1ccccc1Oc1cc(C(=O)O)cc(C(=O)c2ccc(N(C)c3ccc(Cl)cc3)cc2)c1`
group B

Please classify: `CN(c1ccc(Cl)cc1)c1ccc(C(=O)c2cc(C(=O)O)cc(C(=O)Nc3ccccc3OC(F)F)c2)cc1`
group C

Please classify: `CN(c1ccc(Cl)cc1)c1ccc(C(=O)c2cc(C(=O)O)cc(-c3cccc(Cl)c3)c2)nc1`
group B

Please classify: `COCC(=O)N(c1ccccc1)c1cc(C(=O)O)cc(C(=O)c2ccc(N(C)c3ccc(Cl)cc3)cn2)c1`
group C

Please classify: `CCC(CC)C(=O)N(c1ccccc1)c1cc(C(=O)O)cc(C(=O)c2ccc(N(C)c3ccc(Cl)cc3)cc2)c1`
group C

Please classify: `CN(c1ccc(Cl)cc1)c1ccc(C(=O)c2cc(NCc3ccccc3)cc(C(=O)O)c2)cc1`
group B

Please classify: `COCCN(c1ccccc1)c1cc(C(=O)O)cc(C(=O)c2ccc(N(C)c3ccc(Cl)cc3)cc2)c1`
group A

Please classify: `CN(c1ccc(Cl)cc1)c1ccc(C(=O)c2cc(Nc3ccc(Cl)cc3)cc(C(=O)O)c2)nc1`
group A

Please classify: `COc1ccc(Nc2cc(C(=O)O)cc(C(=O)c3ccc(N(C)c4ccc(Cl)cc4)cn3)c2)cc1`
group B

Please classify: `CN(c1ccc(Cl)cc1)c1ccc(C(=O)c2cc(NCc3ccc(Cl)cc3)cc(C(=O)O)c2)cc1`
group B

* * *

Molecular target: Recombinant human LTC4 synthase (Homo sapiens)
Assay: In vitro LTC4 synthase assay (LTA4 to LTC4, HTRF detection)
The compounds listed here are annotated with their pIC50.
// scale note: pIC50 = -log10(conc_M); give the bare number

                                   compound  quantity_name  endpoint_result
0  CN(c1ccc(Cl)cc1)c1ccc(C(=O)c2cc(C(=O)O)cc(N(CC3(C)COC3)c3ccccc3)c2)nc1 [9:15]          pIC50             7.30

Fill blank: measured pIC50 of the compound CN(c1ccc(Cl)cc1)c1ccc(C(=O)c2cc(C(=O)O)cc(N(C)c3ccc(Cl)cc3)c2)cc1 [Example 10:1] is ____.
7.39

Fill blank: measured pIC50 of the compound O=C(O)c1cc(Nc2ccccc2)cc(C(=O)c2ccc(N(CC3CC3)c3ccc(Cl)cc3)cn2)c1 [9:20] is ____.
7.52

Fill blank: measured pIC50 of the compound CN(c1ccc(Cl)cc1)c1ccc(C(=O)c2cc(C(=O)O)cc(N(CCCC(F)(F)F)c3ccccc3)c2)cc1 [10:37] is ____.
6.60
